Below: a set of entries, each annotated with reported IC50.
tgt: recombinant human His-ATG7 enzyme (Homo sapiens (Human))
Sequence (O95352 whole entry): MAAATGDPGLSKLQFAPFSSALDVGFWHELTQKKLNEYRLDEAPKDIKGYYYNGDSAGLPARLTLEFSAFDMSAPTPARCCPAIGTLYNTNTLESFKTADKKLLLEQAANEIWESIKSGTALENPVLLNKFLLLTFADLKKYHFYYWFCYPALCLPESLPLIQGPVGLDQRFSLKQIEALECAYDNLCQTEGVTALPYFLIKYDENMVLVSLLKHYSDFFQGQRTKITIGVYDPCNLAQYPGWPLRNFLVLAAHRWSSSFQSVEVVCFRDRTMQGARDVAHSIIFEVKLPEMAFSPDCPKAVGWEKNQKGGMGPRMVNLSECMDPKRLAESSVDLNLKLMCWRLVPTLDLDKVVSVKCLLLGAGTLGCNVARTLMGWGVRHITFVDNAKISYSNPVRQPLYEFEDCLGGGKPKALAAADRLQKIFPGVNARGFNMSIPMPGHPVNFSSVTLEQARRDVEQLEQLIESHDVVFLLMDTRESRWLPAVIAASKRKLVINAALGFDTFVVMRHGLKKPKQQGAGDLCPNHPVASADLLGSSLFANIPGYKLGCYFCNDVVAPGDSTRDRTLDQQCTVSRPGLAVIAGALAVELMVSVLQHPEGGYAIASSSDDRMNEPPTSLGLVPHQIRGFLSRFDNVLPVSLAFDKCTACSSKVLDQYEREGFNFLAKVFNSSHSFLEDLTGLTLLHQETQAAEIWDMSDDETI
assayExplanation: ATG7 Enzyme Assay (HTRF/FRET, ATG3-GST and Flag-Gabarap)
Procedure: Example 97: ATG7 Enzyme Assay The total volume of the ATG7 enzymatic assay is 50 μL and contains 50 mM HEPES Hemisodium (pH 7.5), 0.05% BSA, 0.01% Tween-20, 25 mM NaCl, 5 mM MgCl2, 10 μM ATP, 250 μM GSH, 5 nM ATG3-GST, 5 nM Flag-Gabarap, 100 μM TCEP and 0.15 nM recombinant human His-ATG7 enzyme. […] After incubation for 2 hours at 24° C., quantification of FRET is performed on the Pherostar™ (BMG Labtech). […]

Solved cases below.
Record Nc1ncnc2c1c(-c1nccs1)nn2[C@@H]1O[C@H](COS(N)(=O)=O)[C@@H](O)[C@H]1O [Compound I-30] , field IC50: > 500 nM

Query Nc1ncnc2c1c(Sc1cccc(Cl)c1)nn2[C@@H]1O[C@H](COS(N)(=O)=O)[C@@H](O)[C@H]1O [Compound I-40] yields IC50 of < 20 nM

Briefly, IC50 measured for Nc1ncnc2c1c(SC1CCCC1)nn2[C@@H]1O[C@H](COS(N)(=O)=O)[C@@H](O)[C@@H]1F [Compound I-103] : < 20 nM

IC50 recorded for this molecule, CC(C)(C)Sc1nn([C@@H]2O[C@H](COS(N)(=O)=O)[C@@H](O)[C@@H]2F)c2ncnc(N)c12 [Compound I-118] , is < 20 nM

Now look at this one.
So for Nc1ncnc2c1c(SC1CCOC1)nn2[C@@H]1O[C@H](COS(N)(=O)=O)[C@@H](O)[C@@H]1F (mixture of isomers) [Compound I-123] , the logged IC50 turned out to be 20 to 50 nM
